MEASURED TARGET: human Rio1 (Homo sapiens, UniProt Q9BRS2)
Construct: Human recombinant kinase Rio1 containing residues 134–494 was expressed and purified as previously reported; made in house
Sequence (Q9BRS2 134-494): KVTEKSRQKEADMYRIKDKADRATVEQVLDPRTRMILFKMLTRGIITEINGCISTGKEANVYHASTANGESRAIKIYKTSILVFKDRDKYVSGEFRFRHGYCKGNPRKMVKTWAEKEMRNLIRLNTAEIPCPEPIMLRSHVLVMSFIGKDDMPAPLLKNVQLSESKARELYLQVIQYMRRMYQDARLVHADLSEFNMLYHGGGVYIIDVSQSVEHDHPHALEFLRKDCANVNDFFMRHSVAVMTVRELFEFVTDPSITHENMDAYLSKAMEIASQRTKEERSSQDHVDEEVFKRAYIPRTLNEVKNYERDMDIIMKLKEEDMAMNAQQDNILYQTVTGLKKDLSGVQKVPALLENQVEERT
EXPERIMENT: Rio1 autophosphorylation assay ([γ-32P]ATP)
Type: biochemical
EXPERIMENTAL PARAMETERS: IC50 against Rio1 at 1 µM ATP, 1 µM ATP

SMILES STRING: Ic1c(I)c(I)c2[nH]cnc2c1I
UNIT TEXT: nM
IC50: 101

###

MEASURED TARGET: hCK2α (Homo sapiens, UniProt P68400)
Sequence (P68400 whole entry): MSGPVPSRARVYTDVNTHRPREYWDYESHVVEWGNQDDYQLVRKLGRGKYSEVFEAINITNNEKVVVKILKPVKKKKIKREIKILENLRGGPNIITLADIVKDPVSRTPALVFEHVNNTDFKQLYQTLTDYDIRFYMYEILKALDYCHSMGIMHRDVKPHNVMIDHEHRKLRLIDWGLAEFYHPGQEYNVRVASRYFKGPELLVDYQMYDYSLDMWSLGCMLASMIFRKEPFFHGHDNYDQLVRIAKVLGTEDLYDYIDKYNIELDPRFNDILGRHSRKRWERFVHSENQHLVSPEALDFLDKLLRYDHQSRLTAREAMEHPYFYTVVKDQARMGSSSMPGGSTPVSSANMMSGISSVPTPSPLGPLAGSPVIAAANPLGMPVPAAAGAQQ
EXPERIMENT: CK2 phosphorylation assay (P2B substrate, [γ-32P]ATP)
Format: biochemical
Parameters: GST (N); made in house; host or cells: bacteria
EXPERIMENTAL PARAMETERS: 20 µM ATP, P2B protein substrate; read-out: Ki (µM) ± SD CK2

COMPOUND: Ic1c(I)c(I)c2[nH]cnc2c1I
Ki: 0.035 µM

COMPOUND: CC(CC(=O)O)Cn1c(N(C)C)nc2c(Br)c(Br)c(Br)c(Br)c21 (stereo not shown)
Ki: 0.647 µM

COMPOUND: Brc1c(I)c(Br)c2nc[nH]c2c1I
Ki: 0.128 µM

COMPOUND: CN(C)c1nc2c(Br)c(Br)c(Br)c(Br)c2n1C
Ki: 0.167 µM

COMPOUND: Cc1nc2c(I)c(I)c(I)c(I)c2[nH]1
Ki: 0.025 µM

COMPOUND: Clc1c(Cl)c(Cl)c2[nH]cnc2c1Cl
Ki: 4.15 µM

COMPOUND: CC(CC(=O)O)Sc1nc2c(Br)c(Br)c(Br)c(Br)c2[nH]1 (stereo not shown)
Ki: 0.141 µM

COMPOUND: CN(C)c1nc2c(I)c(I)c(I)c(I)c2n1C
Ki: 0.085 µM

COMPOUND: N#Cc1cn([C@@H]2O[C@H](CO)[C@@H](O)[C@H]2O)c2ncnc(N)c12 [Toyocamycin, toyocamycin, reference compound]
Ki: 23.5 µM

COMPOUND: Cn1c(SCC(=O)O)nc2c(Br)c(Br)c(Br)c(Br)c21
Ki: 0.257 µM

###

MEASURED TARGET: human Rio1 (Homo sapiens, UniProt Q9BRS2)
Construct: Human recombinant kinase Rio1 containing residues 134–494 was expressed and purified as previously reported; made in house
Sequence (Q9BRS2 134-494): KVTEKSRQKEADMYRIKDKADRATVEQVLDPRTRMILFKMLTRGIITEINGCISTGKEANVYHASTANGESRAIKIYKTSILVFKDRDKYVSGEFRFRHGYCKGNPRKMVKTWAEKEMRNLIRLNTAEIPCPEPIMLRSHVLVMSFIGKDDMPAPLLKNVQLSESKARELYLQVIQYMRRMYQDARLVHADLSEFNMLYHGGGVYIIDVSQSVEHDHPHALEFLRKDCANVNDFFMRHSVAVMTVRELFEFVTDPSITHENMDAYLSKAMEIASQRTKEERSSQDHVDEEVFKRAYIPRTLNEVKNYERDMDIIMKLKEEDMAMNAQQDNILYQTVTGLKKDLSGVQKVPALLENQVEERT
EXPERIMENT: Rio1 autophosphorylation assay ([γ-32P]ATP)
Assay type: biochemical
EXPERIMENTAL PARAMETERS: IC50 against Rio1 at 0.1 µM ATP, 0.1 µM ATP
ASSAY READOUT: IC50

COMPOUND: Ic1c(I)c(I)c2[nH]cnc2c1I [TIBI, 4,5,6,7-tetraiodobenzimidazole]
RESULT: 61 nM

Values compiled from paper PMC5290066.
